System: anti-ovalbumin (OVA) IgE antibody production
Assay: IgE antibody production inhibiting effects against anti-ovalbumin (OVA); anti-OVA IgE antibody titer (PCA titer)
Type: in vivo, BALB/c mice
Conditions: 10 mg/Kg orally, consecutive 10 days, OVA-immunized BALB/c mouse; Log2 of maximum serum dilution giving PCA positive reaction in Wistar rat

>  <molecule>
CC(=O)NC(CCC(N)=O)C(=O)OCOC(=O)N(CC=C(C)C)c1ccc(-c2cc(C)c(-c3ccc(OCC=C(C)C)nc3)cc2C)c(F)c1 (centres unmarked) [Compound I-15]

>  <anti-OVA IgE antibody titer (PCA titer)>
0

$$$$
>  <molecule>
CC(C)=CCOc1ccc(-c2cc(C)c(-c3ccc(N(CC=C(C)C)C(=O)OCOC(=O)CCC(N)=O)cc3F)cc2C)cn1 [Compound I-1]

>  <anti-OVA IgE antibody titer (PCA titer)>
0.8

$$$$
>  <molecule>
CC(=O)NCC(=O)NCC(=O)OCOC(=O)N(CC=C(C)C)c1ccc(-c2cc(C)c(-c3ccc(OCC=C(C)C)nc3)cc2C)c(F)c1 [Compound I-16]

>  <anti-OVA IgE antibody titer (PCA titer)>
<0

$$$$
>  <molecule>
CC(=O)NC(CC(N)=O)C(=O)OCOC(=O)N(CC=C(C)C)c1ccc(-c2cc(C)c(-c3ccc(OCC=C(C)C)nc3)cc2C)c(F)c1 (centres unmarked) [Compound I-13]

>  <anti-OVA IgE antibody titer (PCA titer)>
<0

$$$$
>  <molecule>
CC(=O)NC(CCC(=O)OCOC(=O)N(CC=C(C)C)c1ccc(-c2cc(C)c(-c3ccc(OCC=C(C)C)nc3)cc2C)c(F)c1)C(N)=O (centres unmarked) [Compound I-6]

>  <anti-OVA IgE antibody titer (PCA titer)>
1.8

$$$$
